molecular target: pEGFR (Tyr1068) in PC-9 cells (Ex19Del) (Homo sapiens (Human), UniProt P00533, DEL746-750); test: PC-9 pEGFR AlphaLISA assay; settings: 4 hours incubation, p-EGFR (Tyr1068) AlphaLISA, read-out: Ext pEGFR_PC-9 Ex19Del IC50
Sequence (P00533 other isoform, or with tags, fused parts or gaps del 746-750): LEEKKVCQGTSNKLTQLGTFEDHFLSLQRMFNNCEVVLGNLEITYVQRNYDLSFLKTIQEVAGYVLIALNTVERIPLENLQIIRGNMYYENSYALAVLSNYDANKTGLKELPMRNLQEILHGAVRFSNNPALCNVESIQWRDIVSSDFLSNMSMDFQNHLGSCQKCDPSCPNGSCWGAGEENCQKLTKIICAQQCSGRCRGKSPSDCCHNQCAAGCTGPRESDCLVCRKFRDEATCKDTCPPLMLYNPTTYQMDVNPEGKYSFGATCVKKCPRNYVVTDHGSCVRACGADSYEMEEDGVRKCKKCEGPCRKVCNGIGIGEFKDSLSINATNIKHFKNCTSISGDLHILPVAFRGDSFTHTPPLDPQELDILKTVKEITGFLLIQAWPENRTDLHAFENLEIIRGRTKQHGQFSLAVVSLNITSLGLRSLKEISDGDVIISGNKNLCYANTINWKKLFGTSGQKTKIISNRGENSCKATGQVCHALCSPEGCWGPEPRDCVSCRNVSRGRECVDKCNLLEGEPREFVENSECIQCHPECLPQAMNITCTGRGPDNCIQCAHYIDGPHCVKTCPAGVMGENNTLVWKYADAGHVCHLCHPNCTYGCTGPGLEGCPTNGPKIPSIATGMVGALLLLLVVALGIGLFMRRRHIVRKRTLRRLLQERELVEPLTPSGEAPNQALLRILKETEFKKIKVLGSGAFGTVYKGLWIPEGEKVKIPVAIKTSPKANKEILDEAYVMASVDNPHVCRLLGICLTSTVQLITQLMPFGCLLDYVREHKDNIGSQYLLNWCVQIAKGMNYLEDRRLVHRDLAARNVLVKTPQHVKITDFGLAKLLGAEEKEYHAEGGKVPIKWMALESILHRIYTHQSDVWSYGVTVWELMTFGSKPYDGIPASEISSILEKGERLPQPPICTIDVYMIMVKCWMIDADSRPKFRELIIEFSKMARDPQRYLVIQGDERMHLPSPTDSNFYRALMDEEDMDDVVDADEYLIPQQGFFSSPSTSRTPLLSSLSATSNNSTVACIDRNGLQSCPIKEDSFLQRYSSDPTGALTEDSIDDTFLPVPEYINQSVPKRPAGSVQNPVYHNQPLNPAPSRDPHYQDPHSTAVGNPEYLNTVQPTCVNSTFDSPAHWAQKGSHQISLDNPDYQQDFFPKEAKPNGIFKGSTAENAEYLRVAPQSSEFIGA
pIC50: −log10 of the molar value.
experimental_endpoint: pIC50

| compound | pIC50 |
| --- | --- |
| CCOc1cc2ncnc(-c3cn(C)nc3-c3ccccc3)c2cc1CO | 8.38 |
| COc1cc2ncnc(-c3cn(C)nc3-c3ccccc3)c2cc1NC(=O)c1c(F)cccc1F | 8.82 |
| Cn1cc(-c2ncnc3cc(OC(F)F)c(NC(=O)c4ccc(C5CC5)nc4)nc23)c(-c2ccccc2)n1 | 7.62 |
| COc1cc2ncnc(-c3cn(C)nc3-c3ccccc3)c2cc1OC1CCOCC1 | 8.30 |

I = COc1cc2ncnc(-c3cn(C)nc3-c3ccccc3)c2cc1N1CCN(C)C1=O
II = COc1cc2ncnc(-c3cn(C(F)(F)F)nc3-c3ccccc3)c2cc1NC(=O)C12CC(C1)C2
Query: Which value of pIC50 is numerically greater: that of I or that of II ? Select an item and report its label.
Reply: I
(I: 7.96, II: 6.74)
